In what follows, each item is paired with its IC50 for Pepsin A (Homo sapiens).
Reply numerically in µM, unit not repeated.

Use the examples below as a reference point.
CCCCCCC(O)[C@H](CC(C)C)NC(=O)[C@@H](NC(=O)[C@@H](NC(=O)OC(C)(C)C)C(C)C)C(C)C (some centres undefined) ... 0.83
CCCCCCCCC(O)[C@H](CC(C)C)NC(=O)[C@@H](NC(=O)[C@@H](NC(=O)OC(C)(C)C)C(C)C)C(C)C (some centres undefined) ... 0.79
CCCCCCCCC(O)[C@H](CCC)NC(=O)[C@@H](NC(=O)[C@@H](NC(=O)OC(C)(C)C)C(C)C)C(C)C (some centres undefined) ... 1.07

Let's switch to this molecule now.
Request: What does the record list as IC50 for CCCCC(O)[C@@H](NC(=O)[C@@H](NC(=O)[C@@H](NC(=O)OC(C)(C)C)C(C)C)C(C)C)[C@@H](C)CC (some centres undefined) ?
Result: 33
